# System: A10
# experiment_summary: Reduction of microtubules in […] A10 cells
# Assay type: functional, cell-based
# assay_context: Rattus norvegicus
measured_endpoint: pEC50
Bear in mind: pEC50 is minus log10 of a mol/L concentration; give just that figure.

stdin: Consider the compound shown here: COc1ccc(C2CC(c3cc(OC)c(OC)c(OC)c3)=NN2)cc1O (stereo unspecified) What is its recorded pEC50?
stdout: 5.15
